biological target: Beta-lactamase (Pseudomonas aeruginosa, UniProt Q79MP6); assay: Inhibition of metallo-beta-lactamase (MBL) from Pseudomonas aeruginosa mediated by the plasmid-borne IMP-1 enzyme.
Sequence (Q79MP6 whole entry): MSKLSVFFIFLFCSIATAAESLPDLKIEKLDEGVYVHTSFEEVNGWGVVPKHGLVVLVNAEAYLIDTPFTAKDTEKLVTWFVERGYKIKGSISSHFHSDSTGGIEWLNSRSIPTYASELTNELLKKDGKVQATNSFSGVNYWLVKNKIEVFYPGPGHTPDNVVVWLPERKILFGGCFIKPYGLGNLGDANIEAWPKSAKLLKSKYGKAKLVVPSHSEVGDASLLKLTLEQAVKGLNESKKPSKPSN
pIC50: −log10 of the molar value.
property.label: pIC50

In [3]: df
Out[3]:
                               smiles_input                              study_system  endpoint_value
0  CCCCc1nn(-c2c(Cl)cccc2Cl)c(C(=O)O)c1Cc1ccc(-c2ccccc2-c2nnn[nH]2)cc1  Beta-lactamase (Pseudomonas aeruginosa, UniProt Q79MP6)          < 3.70

Which measured pIC50 belongs to CCCCc1nn(-c2ccc(Cl)cc2Cl)c(C(=O)O)c1Cc1ccc(-c2ccccc2-c2nn[nH]n2)cc1 , tested on Beta-lactamase (Pseudomonas aeruginosa, UniProt Q79MP6)? < 3.70

Form entry - test system: Beta-lactamase (Pseudomonas aeruginosa, UniProt Q79MP6); read-out: pIC50; molecule: CCCCc1nn(-c2ccccc2[N+](=O)[O-])c(C(=O)OCC)c1Cc1ccc(-c2ccccc2-c2nnn[nH]2)cc1 < 3.70
